Experimental details: Pharmacokinetic parameters following intravenous administration in rats
Assay type: in vivo
Assay context: male, Wistar, plasma, iv; rat, 0.3 mg/kg i.v. bolus administration
Metric: half-life (h)

COC(=O)N(CC(F)(F)F)c1c(N)nc(-c2nn(Cc3ccccc3F)c3ncc(F)cc23)nc1N ... 1.9
COC(=O)N(C)c1c(N)nc(-c2nn(Cc3ccccc3F)c3ncc(F)cc23)nc1N ... 1.7

---

Experimental details: Pharmacokinetic parameters following intravenous administration in rats
Format: in vivo
Assay context: male, Wistar, plasma, iv; rat, 0.3 mg/kg i.v. bolus administration
Metric: MRT (h)

COC(=O)N(CC(F)(F)F)c1c(N)nc(-c2nn(Cc3ccccc3F)c3ncc(F)cc23)nc1N ... 2.3
COC(=O)N(C)c1c(N)nc(-c2nn(Cc3ccccc3F)c3ncc(F)cc23)nc1N ... 2.3

---

Experimental details: Pharmacokinetic parameters following intravenous administration in rats
Assay type: in vivo
Assay context: male, Wistar, plasma, iv; rat, 0.3 mg/kg i.v., 15-minute infusion
Metric: MRT (h)
Just the number please, in h, no unit attached.

Any idea what MRT was measured for COC(=O)Nc1c(N)nc(-c2nn(Cc3ccccc3F)c3ncc(F)cc23)nc1N ? 4.1
